Target: West Nile virus strain USA99b (strain 385-99), whole virus (West Nile virus strain 385-99 (USA99b))
Test: SPR as in Example 9, WNV captured via immobilized CR4283, average of duplicates
Listed below: pKd values for each entry.
# pKd: negative log10 of molar concentration; output just the value

{"binder": "CR5080 (antibody, V domains shown) VH: QVTLKESGPTLVKPTQTLTLTCTFSGFSLSTSGVGVGWIRQPPGKALEWLAVIYWNDDKLYRPSLKSRLTITKDTSKNQVVLTMTKMDPVDTATYYCAHRHRYYDISGYYRLFSDAFDIWGQGTMVTVSS VL: QSVLTQPPSVSGAPGQRVTISCTGSSSNIGAGYDVHWYQQLPGTAPKLLIYGNSNRPSGVPDRFSGSKSGTSASLAITGLQAEDEADYYCQSYDSSLSGWAFGGGTKLTVLG", "pKd": 8.57}

[in] Could you share which pKd value was measured for CR5085 (antibody, V domains shown) VH: QVTLKESGPTLVKPTQTLTLTCTFSGFSLSTSGVGVGWIRQPPGKALEWLAVIYWNDDKLYRPSLKSRLTITKDTSKNQVVLTMTKMDPVDTATYYCAHRHRYYDISGYYRLFSDAFDIWGQGTMVTVSS VL: QSVVTQPPSVSGAPGQRVTISCTGSSSNIGAGYDVHWYQQLPGTAPKLLIYGNSNRPSGVPDRFSGSKSGTSASLAITGLQAEDETDYYCQSYDSSLNGWVFGGGTKLTVLG ?
[out] 8.43

[in] Could you share which pKd value was measured for CR5074 (antibody, V domains shown) VH: QVTLKESGPTLVKPTQTLTLTCTFSGFSLSTSGVGVGWIRQPPGKALEWLAVIYWNDDKLYRPSLKSRLTITKDTSKNQVVLTMTKMDPVDTATYYCAHRHRYYDISGYYRLFSDAFDIWGQGTMVTVSS VL: QSVLTQPPSVSGAPGQRVTISCTGSSSNIGTGYDVHWYQQLPGTAPKLLIYADTNRPSGVPDRFSGSKSGTSASLAITGVQAEDEADYYCQSYDTSLTGWVFGGGTKVTVLG ?
[out] 8.41

[in] Could you share which pKd value was measured for CR5088 (antibody, V domains shown) VH: QVTLKESGPTLVKPTQTLTLTCTFSGFSLSTSGVGVGWIRQPPGKALEWLAVIYWNDDKLYRPSLKSRLTITKDTSKNQVVLTMTKMDPVDTATYYCAHRHRYYDISGYYRLFSDAFDIWGQGTMVTVSS VL: QSVVTQPPSVSGAPGQRITISCTGSSSNIGAGYDVHWYQQLPGTAPKFLIYGNSNRPSGVPDRFSGSKSGTSASLAITGLQAEDEADYYCQSYDSSLSGWVFGGGTKLTVLG ?
[out] 8.77

Values from patent US7537764
